System: OVCAR-3 ovarian
Experiment: NCI tumour cell line growth inhibition, 48 h; in the data active = GI50 below about 0.43 µM; inactive = the rest
Outcome codes: active, inactive

{"smiles_input": "CCCCCCCCCCCCN1C(C)=CS/C1=C\\C=C\\c1scc(C)[n+]1CCCCCCCCCCCC", "class_label": "inactive"}
{"smiles_input": "Cn1ccnc1C(=O)/C=C/c1ccc(CC(=O)Nc2ccc(Cl)cc2)cc1", "class_label": "inactive"}
{"smiles_input": "Nc1c(C(=O)Nc2ccccc2)sc2nc3c(cc12)CCCCCC3", "class_label": "active"}
{"smiles_input": "CN(C)CCNC(=O)c1ccc(Nc2nc3ccccc3c3occc23)cc1", "class_label": "inactive"}

====

Tested on: XF 498 CNS
Experiment: NCI tumour cell line growth inhibition, 48 h

{"molecule": "CCOC(=N)CC(=O)Nc1ccc(Cl)cc1", "TGI": "> 100 µM"}
{"molecule": "Cn1ncc(=S)[nH]c1=S", "TGI": "> 100 µM"}
{"molecule": "CC1=CC=NN2C(=O)[C@H](C)C2C1 (some centres undefined)", "TGI": "> 100 µM"}
{"molecule": "O=C(CCN1CCN(c2cccc(Cl)c2)CC1)N1CCc2c([nH]c3ccccc23)C1c1cccnc1 (centres undefined)", "TGI": "9.57 µM"}
